Source listed as patent US20250092039A1.

Entries and their IC50 values follow.
molecular target: KRAS-G12V/RAF1 (Homo sapiens (Human), UniProt P01116, G12V); test: KRAS/RAF1 binding inhibition assay (AlphaScreen)
Sequence (P01116-2 other isoform, or with tags, fused parts or gaps G12V): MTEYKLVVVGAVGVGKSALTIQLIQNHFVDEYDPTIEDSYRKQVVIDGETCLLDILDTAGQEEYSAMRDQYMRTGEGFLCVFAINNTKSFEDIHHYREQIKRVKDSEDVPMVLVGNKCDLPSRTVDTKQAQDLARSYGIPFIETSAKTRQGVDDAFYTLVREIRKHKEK

>  <COMPOUND>
CCc1cccc2cc(O)cc(-c3ncc4c(N(C)[C@@H]5C[C@H]5F)nc(OCC5(CN6CCC(CN7CCN(c8ccc9c(c8)CN([C@H]8CCC(=O)NC8=O)C9=O)CC7)CC6)CC5)nc4c3F)c12

>  <EXPERIMENTAL_TARGET>
KRAS-G12V/RAF1 (Homo sapiens (Human), UniProt P01116, G12V)

>  <VALUE_KIND>
IC50

>  <RESULT>
> 200 nM

$$$$

input: Fill in: IC50 of C[C@@]1(O)CCCN(c2nc(OCC3(CN4CCC5(CC4)CC(N4CCN(c6ccc7c(c6)CN([C@H]6CCC(=O)NC6=O)C7=O)CC4)C5)CC3)nc3c(F)c(-c4cc(O)cc5ccc(F)c(F)c45)ncc23)C1 is ___
output: 20 to 200 nM

input: # get_value(readout='IC50', item= CCc1c(F)ccc2cc(O)cc(-c3ncc4c(N5CCC[C@@]6(CCO6)C5)nc(OCC5(CN6CCC(CN7CCN(c8ccc9c(c8)CN([C@H]8CCC(=O)NC8=O)C9=O)CC7)CC6)CC5)nc4c3F)c12 )
output: > 200 nM

input: Query: IC50; subject: CCc1c(F)ccc2cc(O)cc(-c3ncc4c(N5CCOC[C@@](C)(O)C5)nc(OCC5(CN6CCC7(CC6)CC(CN6CCN(c8ccc9c(c8)CN([C@H]8CCC(=O)NC8=O)C9=O)CC6)C7)CC5)nc4c3F)c12
output: 20 to 200 nM

input: Look up IC50: CCc1c(F)ccc2cc(O)cc(-c3ncc4c(N5CCOCC(C)(O)C5)nc(OCC5(CN6CCC(CN7CCN(c8ccc9c(c8)CN([C@H]8CCC(=O)NC8=O)C9=O)CC7)CC6)CC5)nc4c3F)c12 (stereo partly drawn)
output: 20 to 200 nM

input: For the compound CCc1c(F)ccc2cc(O)cc(-c3ncc4c(N5CCC[C@@](C)(O)C5)nc(OCC5(CN6CCC(CN7CCN(c8ccc(C9CCC(=O)NC9=O)cc8)CC7)CC6)CC5)nc4c3F)c12 (stereo partly drawn) , what IC50 is on record?
output: < 20 nM

input: Give its IC50 value. Item: CCc1c(F)ccc2cc(O)cc(-c3ncc4c(N5CCC[C@@](C)(O)C5)nc(OCC5(CN6CCC7(CC6)CC(C)(CN6CCN(c8ccc9c(c8)CN([C@H]8CCC(=O)NC8=O)C9=O)CC6)C7)CC5)nc4c3F)c12
output: 20 to 200 nM

input: // lookup IC50 for CCc1c(F)ccc2cc(O)cc(-c3ncc4c(N5CCC[C@@](C)(O)C5)nc(OCC5(CN6CCC(N7CC8(CCN(c9ccc%10c(c9)CN(C9CCC(=O)NC9=O)C%10=O)CC8)C7)CC6)CC5)nc4c3F)c12 (stereo partly drawn)
output: < 20 nM

input: I would be grateful if you could share the reported IC50 for CCc1c(F)ccc2cc(O)cc(-c3ncc4c(N5CCC[C@@](C)(O)C5)nc(OCC5(CN6CCN(C7CC8(C7)CN(c7ccc9c(c7)CN(C7CCC(=O)NC7=O)C9=O)C8)CC6)CC5)nc4c3F)c12 (stereo partly drawn) .
output: 20 to 200 nM
